# methodNotes: NCI Yeast Anticancer Drug Screen. Data for the bub3 strain (AID 167)
# conditionsUsed: S. cerevisiae bub3 mutant strain, at 50.0 µM, active compounds read high
# Method: Growth inhibition of yeast strains with defined genetic alterations is measured as a screen for potential anti-cancer activity. Selected strains with alterations in DNA damage repair or cell cycle control were exposed to compounds and growth inhibition was measured relative to vehicle treated controls. The strain used in this assay is bub3
Compounds without any hit were thinned out: in the full panel of roughly 79,000, 15% have a hit.
The entries below come with measured growth inhibition values attached.
Give the quantity in %, number only.

# example entries with known answers
[[record]]
molecule = "OC(c1ccc(Cl)cc1)C(Cl)(Cl)Cl (configuration not stated)"
displayunit = "%"
resultnumber = 95.3

[[record]]
molecule = "O=[C-]CCCCCC[C-]=O.[C-]#[O+].[C-]#[O+].[C-]#[O+].[C-]#[O+].[Fe+6].[Fe+6].[c-]1[c-][c-][cH-][c-]1.[c-]1[c-][c-][cH-][c-]1"
displayunit = "%"
resultnumber = 99

[[record]]
molecule = "CC1C(=O)OCC1(C)O (configuration not stated)"
displayunit = "%"
resultnumber = 46

[[record]]
molecule = "C=CCN(CC=C)CC(C(C)=O)C(c1ccccc1)c1c(O)c2ccccc2oc1=O (configuration not stated)"
displayunit = "%"
resultnumber = 78.8

[[record]]
molecule = "C[C@H](N)C(=O)N[C@@H]1[C@H]2C(=C(O)C[C@@H](O)[C@@H]2O)C(=O)O[C@]1(C)C(Cl)Cl"
displayunit = "%"
resultnumber = 30.9

[[record]]
molecule = "CCN(CCCl)c1cc(CN(C)C)cc(NC(=O)c2ccc(C(=O)Nc3cccc(N(CCCl)NN)c3)cc2)c1"
displayunit = "%"
resultnumber = 97.8


Ask: What does the data say about its growth inhibition? Entry: `O=c1[nH]cc(Cn2cnc3ncccc3c2=O)c(=O)[nH]1`
Reply: -18.2

Ask: Cool, now O=P1(Oc2ccccc2)C(c2ccccc2)C(c2ccccc2)=NN1c1ccccc1 (configuration not stated)
Reply: 90.1

Ask: // next record `CCC(C)(c1ccc(O)cc1)c1ccc(O)cc1`
Reply: 96.4

Ask: Note, next up: Cc1ccc(NP(=O)(Oc2ccccc2)N(CCCl)CCCl)cc1 (configuration not stated)
Reply: 62

Ask: Would you mind doing `CC(C)(C)[CH2][Hg][Cl]` as well?
Reply: 99.5

----------
# methodNotes: NCI Yeast Anticancer Drug Screen. Data for the rad50 strain (AID 155);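 note: 0% = growth of vehicle-only cultures of the same strain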
# conditionsUsed: S. cerevisiae rad50 strain growth inhibition; at 50.0 µM; active compounds read high
This is part of a sample that, as a whole, favours compounds with a hit. Of some 79,000 tested, about 15% had one in any assay.
Binary call on growth inhibition: yes from 90% upward, no beneath that.

Worked examples follow.
[[record]]
compound = "CCOC(=O)C1=C(C(=O)OCC)C2(c3ccccc3)N(O1)c1ccccc1C2(C)C (stereo not drawn)"
group = "no"

[[record]]
compound = "CCOP(=O)(O)C(Nc1ccc(N=Nc2ccccc2)cc1)c1cccc(C(Nc2ccc(N=Nc3ccccc3)cc2)P(=O)(O)OCC)c1 (stereo not drawn)"
group = "no"

[[record]]
compound = "O=C(CCl)OCC(Cl)Cl"
group = "no"

[[record]]
compound = "Cc1ccc(NP(=O)(Oc2ccccc2)N(CCCl)CCCl)cc1 (stereo not drawn)"
group = "no"

[[record]]
compound = "Nc1nc(N)c(-c2ccc(Cl)c(Cl)c2)c(CCc2ccc(CNC(=O)Nc3ccc(S(=O)(=O)F)cc3)cc2)n1"
group = "no"


Ask: hey, is growth inhibition for this one >= 90%? COc1ccc2c(c1O)C13CCN(C)C(C2)C12C=CC(=O)C3c1c(O)ccc(O)c12 (stereo not drawn)
Reply: no

Ask: Same lookup for `C[As](c1ccc(Br)cc1)c1ccc(Br)cc1` , please.
Reply: no

Ask: CCCCCC(Cn1ccnc1)c1ccc(Cl)cc1Cl (stereo not drawn) ?
Reply: yes

Ask: Further, for `CCN(CC)CC.CCOc1ccc(NC(=O)N=C=[N-])cc1.[CH-]1CCCCC1.[CH-]1CCCCC1.[CH-]1CCCCC1.[Cl-].[Sn+4]` ?
Reply: no

Ask: Try this compound next: `CC(CCS(C)(=O)=O)([N+](=O)[O-])[N+](=O)[O-]`
Reply: no

----------
# methodNotes: NCI Yeast Anticancer Drug Screen. Data for the sgs1 mgt1 strain (AID 161);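 note: 0% = growth of cultures given vehicle only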
# conditionsUsed: S. cerevisiae sgs1 mgt1 strain, at 50.0 µM, active compounds read high
Compounds without any hit were thinned out: in the full panel of roughly 79,000, 15% have a hit. Active and inactive are the calls of the source. Cut-off read from the data, not from the text of the source: active = growth inhibition above about 70%; inactive = the rest.
measuredQuantity: growth inhibition

# annotated cases, reported growth inhibition shown
[[record]]
compound = "O=c1c(O)c(-c2ccccc2)oc2ccccc12.[Pb]"
measuredquantity = "growth inhibition"
result = "98.4% (active)"

[[record]]
compound = "[C](#Cc1ccccc1)[Hg][C]#Cc1ccccc1"
measuredquantity = "growth inhibition"
result = "99% (active)"

[[record]]
compound = "Cc1cc(N(CCCl)CCCl)ccc1CN1CCCN(Cc2ccc(N(CCCl)CCCl)cc2C)C1c1ccc(N(CCCl)CCCl)cc1C"
measuredquantity = "growth inhibition"
result = "98.8% (active)"

[[record]]
compound = "Cc1cc[n+](C2=C(Nc3ccc(Cl)cc3Cl)C(=O)c3ccccc3C2=O)cc1"
measuredquantity = "growth inhibition"
result = "66.4% (inactive)"

[[record]]
compound = "COC(=O)[C@@]12OC[C@]34[C@H]([C@@H](O)[C@@H]1O)[C@@]1(C)CC(=O)C(O)=C(C)[C@@H]1C[C@H]3OC(=O)[C@H](OC(=O)/C=C(\\C)C(C)C)[C@@H]24"
measuredquantity = "growth inhibition"
result = "93% (active)"

[[record]]
compound = "O=C(/C=C(\\c1ccccc1)N1CC1)c1ccccc1"
measuredquantity = "growth inhibition"
result = "17.2% (inactive)"


Next up:
Ask: Reported growth inhibition, compound [Cl][Pt+2][Cl].[NH-]C1CCCC2CCC[N-]C12 (centres undefined) : ____
Reply: 57.8% (inactive)

----------
growth inhibition values for the molecules below.
# methodNotes: NCI Yeast Anticancer Drug Screen. Data for the sgs1 mgt1 strain (AID 161);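 note: 0% = growth of cultures given vehicle only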
# conditionsUsed: S. cerevisiae sgs1 mgt1 strain, at 5.0 µM (retest, dose inferred, filed as 0.5), active compounds read high
Compounds without any hit were thinned out: in the full panel of roughly 79,000, 15% have a hit.
Answer format: numeric, % implied, no suffix.

// worked examples, growth inhibition included
[[record]]
molecule = "CC1=C(N2CC2)C(=O)c2ccccc2C1=O"
displayunit = "%"
resultnumber = -41

[[record]]
molecule = "C[N+]1(CCCl)CC[N+](C)(CCCl)CC1 (stereo unspecified)"
displayunit = "%"
resultnumber = 29

[[record]]
molecule = "COC1CC2C(C[CH]1[Hg][Cl])C2(Cl)Cl (stereo unspecified)"
displayunit = "%"
resultnumber = 100

[[record]]
molecule = "COc1cc(C(c2c(O)c3ccccc3oc2=O)c2c(O)c3ccccc3oc2=O)cc(OC)c1O"
displayunit = "%"
resultnumber = -2

[[record]]
molecule = "Cn1cc(/C=C/[N+](=O)[O-])c2ccccc21"
displayunit = "%"
resultnumber = 2


Ask: May I ask what growth inhibition has been recorded for `Cc1cc[n+](C2=C(Nc3cc(C)cc(C)c3)C(=O)c3ccccc3C2=O)cc1` ?
Reply: -1

----------
# methodNotes: NCI Yeast Anticancer Drug Screen. Data for the rad50 strain (AID 155);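 note: 0% = growth of vehicle-only cultures of the same strain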
# conditionsUsed: S. cerevisiae rad50 strain growth inhibition; at 5.0 µM (retest, dose inferred, filed as 0.5); active compounds read high
The panel holds about 79,000 compounds, 15% with a hit somewhere; the sample as a whole holds those more often.
measuredQuantity: growth inhibition (%)
Lab book: enter the figure in %, no units written.

Use the examples below as a reference point.
[[record]]
compound = "C1CC[N-]CC1.C1CC[N-]CC1.N#CO.[Ag]"
resultnumber = 99

[[record]]
compound = "Cc1cc(N(CCCl)CCCl)ccc1CN1CCCN(Cc2ccc(N(CCCl)CCCl)cc2C)C1c1cccc(F)c1"
resultnumber = 6

[[record]]
compound = "CC1CC(Br)C(=O)O1 (stereo not drawn)"
resultnumber = -14

[[record]]
compound = "C/C(=N\\N=C(/[Se])N1CC2CCC(CC2)C1)c1ccccn1"
resultnumber = 62

[[record]]
compound = "CC(C)CCCC(C)CCC1C(=O)NC(=O)NC1=O (stereo not drawn)"
resultnumber = 6

[[record]]
compound = "CNC(=O)N1CN(c2ccccc2)C2(CCN(CCCC(=O)c3ccc(F)cc3)CC2)C1=O"
resultnumber = -7

[[record]]
compound = "CCCCN(CC)CC(C(C)=O)c1c(O)c2ccccc2oc1=O (stereo not drawn)"
resultnumber = 8

[[record]]
compound = "CCC1(O)C(=O)OCc2c1cc1n(c2=O)Cc2cc3cc([N+](=O)[O-])ccc3nc2-1 (stereo not drawn)"
resultnumber = 76


Ask: Field request: growth inhibition | item: `O=c1oc2ccccc2c(O)c1C1c2c(c3ccccc3oc2=O)Oc2c1c(=O)oc1ccccc21`
Reply: 9

Ask: Item: CCOC(=O)C(/N=N\c1nn[nH]n1)/N=N/c1ncn[nH]1 (stereo not drawn)
Reply: -7

Ask: Another compound to look at: CCOP(=O)(Oc1ccc([N+](=O)[O-])cc1)c1ccccc1C(C)C (stereo not drawn)
Reply: 11

Ask: Consider next the compound Clc1ccc2c(NCCCCN3OC3c3ccccc3)ccnc2c1 (stereo not drawn) in the same way.
Reply: 30

Ask: Next entry: `COc1cc(CC(=O)N2CC2)cc(OC)c1OC`
Reply: -6

Ask: Entry `O=[N+]([O-])c1ccc(C=Cc2ccccc2)cc1.[C-]#[O+].[C-]#[O+].[C-]#[O+].[Cr]` please
Reply: 39

Ask: And the next one, `[N-]=[N+]=NS(=O)(=O)c1cccc([N+](=O)[O-])c1` ?
Reply: 8

Ask: Thanks! And O=C(O)C1(c2ccccc2)OC1c1ccccc1 (stereo not drawn) ?
Reply: 2

Ask: Also check c1cc2c(cc1C1OC[C@H]3[C@@H](c4ccc5c(c4)OCO5)OC[C@@H]13)OCO2 (stereo partly drawn)
Reply: 2

Ask: What do you have for `C[CH2][Pb]([CH2]C)([CH2]C)[n]1cnc2ccccc21` ?
Reply: 4

Ask: Same for `CC(C)(c1ccccc1)c1ccc(O)cc1`
Reply: -5

Ask: What about this compound? `N#Cc1cc(N(CCCl)CCCl)c([N+](=O)[O-])cc1[N+](=O)[O-]`
Reply: 5

Ask: Follow-up entry: CC(=O)OC1C2(CC3N4C(=O)C5(CO)SSC4(CC31O)C(=O)N5C)OC(C)C(C)(C)C2=O (stereo not drawn)
Reply: 67

Ask: Field entry: `CC(=O)[O-].[Zn].c1ccc(/C(=N\Nc2ccccn2)c2ccccn2)cc1`
Reply: 29

Ask: Now try `COc1ccc(OC)c(C=O)c1` .
Reply: 1
